target: HSD17B13 enzyme (Homo sapiens, UniProt Q7Z5P4); construct: His; made in house; host or cells: E. coli; assay: LC/MS estrone detection assay (conversion of estradiol to estrone by HSD17B13); format: biochemical; conditions: substrate 4 μM estradiol, 6 mM NAD+, 30 nM HSD17B13 enzyme, 2 hours at 26.5° C
Sequence (Q7Z5P4 20-300): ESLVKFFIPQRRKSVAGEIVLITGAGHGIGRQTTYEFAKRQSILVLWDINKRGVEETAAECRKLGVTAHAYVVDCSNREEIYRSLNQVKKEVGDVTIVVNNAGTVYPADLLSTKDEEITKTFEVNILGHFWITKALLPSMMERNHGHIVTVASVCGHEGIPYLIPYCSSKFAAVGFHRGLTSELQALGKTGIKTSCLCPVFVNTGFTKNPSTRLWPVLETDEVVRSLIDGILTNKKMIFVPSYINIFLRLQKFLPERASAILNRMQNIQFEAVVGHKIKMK
IC50 values for the compounds below.

COc1ccccc1CCNC(=O)c1c(NC(=O)c2ccc(O)c(Cl)c2)sc2c1CCN(C)C2 100 to 1000 nM
O=C(Nc1ccsc1C(=O)N[C@@H](CO)c1ccccc1)c1ccc(O)c(Cl)c1 ≤ 100 nM
COc1ccccc1CCNC(=O)c1c(NC(=O)c2ccc(O)c(F)c2)sc(C)c1C ≤ 100 nM
O=C(Nc1cc(Cl)sc1C(=O)NCCN1CCOCC1)c1ccc(O)c(F)c1 ≤ 100 nM

QUERY: Request the reported IC50 associated with O=C(Nc1cc(Cl)sc1C(=O)NCCc1ccccc1C(F)(F)F)c1ccc(O)c(Cl)c1
RESULT: ≤ 100 nM

QUERY: Request the reported IC50 associated with CN1CCN(CCNC(=O)c2sc(Cl)cc2NC(=O)c2ccc(O)c(F)c2)CC1
RESULT: 100 to 1000 nM

QUERY: Request the reported IC50 associated with O=C(Nc1cc(Cl)sc1C(=O)NCCc1ccc(F)cc1Cl)c1ccc(O)c(F)c1
RESULT: 100 to 1000 nM

QUERY: Request the reported IC50 associated with O=C(Nc1sc(Cl)cc1C(=O)NCCc1ccccc1F)c1ccc(O)c(F)c1
RESULT: ≤ 100 nM
